Biological target: T1, recombinant human IL-1α (human) (UniProt P01583)
T1 sequence: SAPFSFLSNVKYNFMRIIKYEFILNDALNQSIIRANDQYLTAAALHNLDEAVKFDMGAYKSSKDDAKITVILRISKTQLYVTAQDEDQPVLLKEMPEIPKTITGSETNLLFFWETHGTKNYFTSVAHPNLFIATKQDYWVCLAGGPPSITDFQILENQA
Assay: SPR (Biacore), antibody captured, IL-1α in solution
assay.metric: Kd
The answer should read as a number with its unit following.

binder	readout.value
anti-human IL-1α monoclonal antibody 3D12 (antibody, from a related filing, V domains shown) VH: QIQLVQSGPELKKPGETVKISCKASGYTFRNYGMNWVKQAPGKDLKRMAWINTYTGESTYADDFKGRFAFSLETSASTAYLQINNLKNEDTATYFCARGIYYYGSSYAMDYWGQGTSVTVSS VL: IQMTQTTSSLSASLGDRVTISCRASQDISNCLNWYQQKPDGTVKLLIYYTSRLHSGVPSRFSGSGSGTDYSLTISNLEQEDIATYFCQQGKTLPYAFGGGTKLEINR	1.34 nM
humanized anti-human IL-1α antibody H3D12.r37 (antibody, from a related filing, human IgG1, V domains shown) VH: EIQLVQSGAEVKKPGASVKVSCKASGYTFKYYGMNWVRQAPGQGLERMGWINTYTGESRYADDFKGRVTFTLDTSTSTAYMELSSLRSEDTAVYYCARDIYYFGSDYAMDYWGQGTTVTVSS VL: DIQMTQSPSSLSASVGDRVTITCRASQDISNRLNWYQQKPGKAPKLLIYYASRLKPGVPSRFSGSGSGTDYTFTISSLQPEDIATYFCQQGNTPPYTFGQGTKLEIK	0.028 nM

Continue with the binder presented below.
Given the binder humanized anti-human IL-1α antibody H3D12.8 (antibody, from a related filing, human IgG1, V domains shown) VH: EIQLVQSGSELKKPGASVKVSCKASGYTFTNYGMNWVRQAPGQDLERMAWINTYTGESTYADDFKGRFVFSLDTSVSTAYLQISSLKAEDTAVYFCARGIYYYGSSYAMDYWGQGTTVTVSS VL: DIQMTQSPSSLSASVGDRVTITCRASQDISNCLNWYQQKPGKTPKLLIYYTSRLHSGVPSRFSGSGSGTDYTFTISSLQPEDIATYFCQQGKTLPYAFGQGTKLEIK , what is its reported Kd? 1.35 nM
